For each of the molecules below, state its Ki.
testedTarget: human H3 receptor (Homo sapiens)
Construct: expressed in transfected cells
Sequence (Q9Y5N1 whole entry): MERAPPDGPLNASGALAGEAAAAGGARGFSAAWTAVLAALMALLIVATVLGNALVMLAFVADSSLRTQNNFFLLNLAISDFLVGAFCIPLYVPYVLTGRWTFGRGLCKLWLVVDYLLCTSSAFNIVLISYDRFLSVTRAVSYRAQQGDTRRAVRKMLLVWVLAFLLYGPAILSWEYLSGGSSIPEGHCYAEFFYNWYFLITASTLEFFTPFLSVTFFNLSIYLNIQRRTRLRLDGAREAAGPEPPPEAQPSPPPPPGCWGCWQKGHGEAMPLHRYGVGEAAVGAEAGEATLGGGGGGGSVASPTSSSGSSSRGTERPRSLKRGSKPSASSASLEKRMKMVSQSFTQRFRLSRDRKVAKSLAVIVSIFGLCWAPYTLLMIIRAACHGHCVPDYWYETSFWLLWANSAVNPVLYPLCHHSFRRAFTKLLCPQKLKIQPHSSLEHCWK
assaySummary: Human H3 radioligand binding ([3H]-N-alpha-methylhistamine, SPA)
runConditions: Human H3 binding, Table B, Examples 136-362; read-out: hum H3 binding Ki

// assay human H3 receptor (Homo sapiens), entry "O=C(Nc1ccc2c(c1)CCC1(CCN(C3CCC3)CC1)O2)c1ccns1" , Ki value = < 200 nM

// assay human H3 receptor (Homo sapiens), entry "COCCNC(=O)c1c(F)cc(-c2ccc3c(c2)CCC2(CCN(C4CCC4)CC2)O3)cc1F" , Ki value = < 200 nM

// assay human H3 receptor (Homo sapiens), entry "O=C(c1ccccc1Nc1ccc2c(c1)COC1(CCN(C3CCC3)CC1)O2)N1CCOCC1" , Ki value = < 200 nM

// assay human H3 receptor (Homo sapiens), entry "CS(=O)(=O)c1ccccc1C(=O)Nc1ccc2c(c1)COC1(CCN(C3CCC3)CC1)O2" , Ki value = 200 to 1000 nM

// assay human H3 receptor (Homo sapiens), entry "CC(=O)N(Cc1cccs1)c1ccc2c(c1)COC1(CCN(C3CCC3)CC1)O2" , Ki value = < 200 nM

// assay human H3 receptor (Homo sapiens), entry "O=C(Nc1ccc2c(c1)COC1(CCN(C3CCC3)CC1)O2)c1ccnc(N2CCCC2)c1" , Ki value = < 200 nM

// assay human H3 receptor (Homo sapiens), entry OC1CC2(CCN(C3CCC3)CC2)Oc2ccc(OCc3ccccc3)cc21 (stereo not drawn) , Ki value = < 200 nM

// assay human H3 receptor (Homo sapiens), entry "CC(=O)N(Cc1ccncc1)c1ccc2c(c1)COC1(CCN(C3CCC3)CC1)O2" , Ki value = < 200 nM

// assay human H3 receptor (Homo sapiens), entry "O=C(Nc1ccc2c(c1)COC1(CCN(C3CCC3)CC1)O2)c1ccncc1Cl" , Ki value = < 200 nM

// assay human H3 receptor (Homo sapiens), entry "CC(=O)N(c1ccc2c(c1)COC1(CCN(C3CCC3)CC1)O2)c1ccccn1" , Ki value = < 200 nM

// assay human H3 receptor (Homo sapiens), entry "Cc1cc(-c2ccc3c(c2)CCC2(CCN(C4CCC4)CC2)O3)ccc1C(=O)NCCO" , Ki value = < 200 nM

// assay human H3 receptor (Homo sapiens), entry "Cc1nn(C)c(C)c1-c1ccc2c(c1)CCC1(CCN(C3CCC3)CC1)O2" , Ki value = < 200 nM

// assay human H3 receptor (Homo sapiens), entry "CNC(=O)c1ccc(-c2cc3c(cc2Cl)OC2(CCN(C4CCC4)CC2)OC3)cc1F" , Ki value = < 200 nM

// assay human H3 receptor (Homo sapiens), entry "O=C(Nc1ccc(F)cc1)Nc1ccc2c(c1)COC1(CCN(C3CCC3)CC1)O2" , Ki value = < 200 nM

// assay human H3 receptor (Homo sapiens), entry "O=C(Nc1ccc2c(c1)COC1(CCN(C3CCC3)CC1)O2)C1CCOCC1" , Ki value = < 200 nM

// assay human H3 receptor (Homo sapiens), entry "O=c1cccnn1-c1ccc2c(c1)COC1(CCN(C3CCC3)CC1)O2" , Ki value = 200 to 1000 nM

// assay human H3 receptor (Homo sapiens), entry "O=C(Nc1ccc2c(c1)COC1(CCN(C3CCC3)CC1)O2)c1ccc2ncsc2c1" , Ki value = < 200 nM

// assay human H3 receptor (Homo sapiens), entry "c1csc(-c2ccc3c(c2)COC2(CCN(C4CCC4)CC2)O3)n1" , Ki value = < 200 nM

// assay human H3 receptor (Homo sapiens), entry "c1cnc(-c2ccc3c(c2)CCC2(CCN(C4CCC4)CC2)O3)cn1" , Ki value = < 200 nM

// assay human H3 receptor (Homo sapiens), entry "O[C@H]1CCN(c2ccc3c(c2)COC2(CCN(C4CCC4)CC2)O3)C1" , Ki value = < 200 nM

// assay human H3 receptor (Homo sapiens), entry "CNC(=O)c1ccc(-c2ccc3c(c2)CCC2(CCN(C4CCC4)CC2)O3)cc1C" , Ki value = < 200 nM

// assay human H3 receptor (Homo sapiens), entry "Cc1nn(C)c(C)c1-c1ccc2c(c1)COC1(CCN(C3CCC3)CC1)O2" , Ki value = < 200 nM

// assay human H3 receptor (Homo sapiens), entry "COCCNC(=O)c1ccc(-c2ccc3c(c2)COC2(CCN(C4CCC4)CC2)O3)cc1Cl" , Ki value = < 200 nM

// assay human H3 receptor (Homo sapiens), entry "CCOC(=O)c1ccc(NC(=O)Nc2ccc3c(c2)COC2(CCN(C4CCC4)CC2)O3)cc1" , Ki value = < 200 nM

// assay human H3 receptor (Homo sapiens), entry "Cn1cc(C(=O)Nc2ccc3c(c2)COC2(CCN(C4CCC4)CC2)O3)cn1" , Ki value = < 200 nM

// assay human H3 receptor (Homo sapiens), entry "COCCN(C)C(=O)c1ccc(-c2ccc3c(c2)COC2(CCN(C4CCC4)CC2)O3)cc1" , Ki value = < 200 nM

// assay human H3 receptor (Homo sapiens), entry "O=C(c1ccc(-c2ccc3c(c2)CCC2(CCN(C4CCC4)CC2)O3)cc1)N1CCC(O)CC1" , Ki value = < 200 nM

// assay human H3 receptor (Homo sapiens), entry "O=C1C[C@@H](O)CN1c1ccc2c(c1)COC1(CCN(C3CCC3)CC1)O2" , Ki value = < 200 nM

// assay human H3 receptor (Homo sapiens), entry "CNC(=O)c1ccc(-c2ccc3c(c2)COC2(CCN(C4CCC4)CC2)O3)cc1Cl" , Ki value = < 200 nM

// assay human H3 receptor (Homo sapiens), entry "O=C(Nc1ccc2c(c1)COC1(CCN(C3CCC3)CC1)O2)c1cncs1" , Ki value = < 200 nM

// assay human H3 receptor (Homo sapiens), entry "c1ccc(Oc2ccc3c(c2)CCC2(CCN(C4CCC4)CC2)O3)nc1" , Ki value = < 200 nM

// assay human H3 receptor (Homo sapiens), entry "CNC(=O)c1ccc(-c2ccc3c(c2)COC2(CCN(C4CCC4)CC2)O3)s1" , Ki value = < 200 nM

// assay human H3 receptor (Homo sapiens), entry "O=C1N(c2ccc(C(F)(F)F)nc2)CCN1c1ccc2c(c1)COC1(CCN(C3CCC3)CC1)O2" , Ki value = < 200 nM
